Assembled from different publications: IC50 for Somatostatin receptor type 1 (Homo sapiens).

Solved entries:
Request: IC50, test system Somatostatin receptor type 1 (Homo sapiens), entry `C[C@@H]1NC(=O)[C@H](Cc2ccccc2)NC(=O)[C@@H](NC(=O)[C@@H](N)Cc2ccc(O)cc2)CSSC[C@@H](C(=O)O)NC(=O)[C@H](Cc2ccccc2)NC(=O)[C@H]([C@@H](C)O)NC(=O)[C@H](CCCCN)NC(=O)[C@H](Cc2c[nH]c3ccccc23)NC1=O`
> 1000 nM

Find IC50 (Somatostatin receptor type 1 (Homo sapiens)) for the entry `C[C@@H](O)[C@@H]1NC(=O)[C@H](CCCCN)NC(=O)[C@@H](Cc2ccc(NC(N)=O)cc2)NC(=O)[C@H](Cc2ccc(NC(=O)[C@@H]3CC(=O)NC(=O)N3)cc2)NC(=O)[C@H](NC(=O)[C@H](Cc2ccc(Cl)cc2)NC(=O)CN2CCN(CC(=O)O)CCN(CC(=O)O)CCN(CC(=O)O)CC2)CSSC[C@@H](C(=O)N[C@H](Cc2ccc(O)cc2)C(N)=O)NC1=O`
> 1000 nM

IC50 of `C[C@H](c1ccc2ccccc2c1)[C@H]1NC(=O)[C@H](Cc2ccc(O)cc2)NC(=O)[C@@H](Cc2ccccc2)NC(=O)[C@H](N)CSSC[C@@H](C(=O)O)NC(=O)[C@H](Cc2ccccc2)NC(=O)[C@@H]([C@@H](C)O)NC(=O)[C@H](CCCCN)NC1=O` on Somatostatin receptor type 1 (Homo sapiens)?
> 10000 nM

Others:
Hi! What's the reported IC50 for `CC(C)[C@@H]1NC(=O)[C@H](CCCCN)NC(=O)[C@@H](Cc2c[nH]c3ccccc23)N(C)C(=O)[C@H](Cc2ccc(O)cc2)NC(=O)[C@H](C)N(C)C(=O)[C@H](Cc2ccccc2)NC1=O` on Somatostatin receptor type 1 (Homo sapiens)?
> 1000 nM

Write down the reported IC50 of `C[C@@H](O)[C@H](NC(=O)[C@@H]1CSSC[C@H](NC(=O)[C@H](N)Cc2ccccc2)C(=O)N[C@@H](Cc2ccccc2)C(=O)N[C@H](Cc2c[nH]c3ccccc23)C(=O)N[C@@H](CCCCN)C(=O)N[C@@H]([C@@H](C)O)C(=O)N1)C(N)=O` , test system: Somatostatin receptor type 1 (Homo sapiens).
> 1000 nM

Reported IC50 for Somatostatin receptor type 1 (Homo sapiens), given `CC(=O)N[C@@H]1SSC[C@H](C(=O)O)NC(=O)[C@H](Cc2ccccc2)NC(=O)[C@H]([C@@H](C)O)NC(=O)[C@H](CCCCN)NC(=O)[C@@H](Cc2c[nH]c3ccccc23)NC(=O)[C@H](Cc2ccccc2)NC(=O)[C@H](Cc2ccccc2)NC1=O` ?
> 1000 nM

====

Literature IC50 values, system: Somatostatin receptor type 1 (Homo sapiens, UniProt P30872).
Sequence (P30872 whole entry): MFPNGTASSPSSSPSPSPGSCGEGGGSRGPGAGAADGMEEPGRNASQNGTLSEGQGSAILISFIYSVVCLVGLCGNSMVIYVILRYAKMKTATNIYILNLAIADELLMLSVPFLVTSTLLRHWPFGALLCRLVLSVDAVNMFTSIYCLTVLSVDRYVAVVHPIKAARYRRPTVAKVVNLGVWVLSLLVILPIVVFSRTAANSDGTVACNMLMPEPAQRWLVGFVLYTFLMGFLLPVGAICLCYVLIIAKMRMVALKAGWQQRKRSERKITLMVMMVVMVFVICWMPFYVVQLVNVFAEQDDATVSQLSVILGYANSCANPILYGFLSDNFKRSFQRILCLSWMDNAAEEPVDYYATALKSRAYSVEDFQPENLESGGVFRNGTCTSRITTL

These recorded examples may help you get a feel for the data.
Recorded IC50 for `CC(C)[C@@H]1NC(=O)[C@H](CCCCN)NC(=O)[C@@H](Cc2c[nH]c3ccccc23)NC(=O)[C@H](Cc2ccc(O)cc2)NC(=O)[C@H](C)N(C)C(=O)[C@H](Cc2ccccc2)N(C)C1=O` with Somatostatin receptor type 1 (Homo sapiens, UniProt P30872), please?
> 1000 nM

Requested read-out IC50, target or system Somatostatin receptor type 1 (Homo sapiens, UniProt P30872), entry `C[C@@H](O)[C@@H]1NC(=O)[C@H](CCCCN)NC(=O)[C@@H](Cc2c[nH]c3ccccc23)NC(=O)[C@H](Cc2ccccc2)NC(=O)[C@H](Cc2ccccc2)NC(=O)[C@@H](N)CSSC[C@@H](C(=O)O)NC(=O)[C@@H](N(C)C(=O)c2ccccc2)NC1=O`
> 10000 nM

# value lookup — system Somatostatin receptor type 1 (Homo sapiens, UniProt P30872), readout IC50, item `NCCCCCN1Cc2[nH]c3ccccc3c2C[C@@H](NC(=O)Cc2ccccc2)C1=O`
> 1000 nM

Recall the recorded IC50 for `C[C@@H](O)[C@@H]1NC(=O)[C@H](CCCCN)NC(=O)[C@H](Cc2c[nH]c3ccccc23)NC(=O)[C@H](N(C)C(=O)c2ccccc2)NC(=O)[C@H](Cc2ccccc2)NC(=O)[C@@H](N)CSSC[C@@H](C(=O)O)NC(=O)[C@H](Cc2ccccc2)NC1=O` with Somatostatin receptor type 1 (Homo sapiens, UniProt P30872) and state it.
> 10000 nM

Please state recorded IC50 (tested on Somatostatin receptor type 1 (Homo sapiens, UniProt P30872)) of `C[C@@H](O)[C@@H]1NC(=O)[C@H](CCCCN)NC(=O)[C@@H](Cc2c[nH]c3ccccc23)NC(=O)[C@H](Cc2ccc(NC(N)=O)cc2)NC(=O)[C@H](NC(=O)[C@@H](N)Cc2ccc(Cl)cc2)CSSC[C@@H](C(=O)N[C@@H](Cc2ccc(NC(=O)[C@@H]3CC(=O)NC(=O)N3)cc2)C(N)=O)NC1=O`
> 1000 nM

Others:
# query: IC50 | item `C[C@@H]1NC(=O)[C@H](Cc2ccccc2)NC(=O)[C@@H](N)CSSC[C@@H](C(=O)O)NC(=O)[C@H](C)NC(=O)[C@H]([C@@H](C)O)NC(=O)[C@H](CCCCN)NC(=O)[C@@H](Cc2c[nH]c3ccccc23)NC1=O` | system: Somatostatin receptor type 1 (Homo sapiens, UniProt P30872)
> 10000 nM

So what IC50 did `C[C@@H](O)[C@@H]1NC(=O)[C@H](CCCCN)NC(=O)[C@@H](Cc2ccc(NC(N)=O)cc2)NC(=O)[C@H](Cc2ccc(NC(=O)[C@@H]3CC(=O)NC(=O)N3)cc2)NC(=O)[C@H](NC(=O)[C@H](Cc2ccc(Cl)cc2)NC(=O)CN2CCN(CC(=O)O)CCN(CC(=O)O)CCN(CC(=O)O)CC2)CSSC[C@@H](C(=O)N[C@@H](Cc2ccc3ccccc3c2)C(N)=O)NC1=O` get with Somatostatin receptor type 1 (Homo sapiens, UniProt P30872)?
> 1000 nM
